Where do these numbers come from? They come from patent US6548494B1.

# target-of-assay: purified PARP protein (Homo sapiens)
# assay-remarks: PARP enzyme inhibition assay
# Assay type: biochemical
# recorded-conditions: 20 nM purified PARP (5 nM for tight-binding inhibitors), 500 μM NAD+, 25° C.; several values in one cell = repeat determinations; read-out: Inhibition Constant Ki
assay-metric: log10 of Ki (log10 of the value in nM)
Plainly stated, the numbers are log10 of Ki given in nM.

>>> test_result("Cc1ccc(-c2nc(-c3nc4cccc5c4n3CCNC5=O)cs2)cc1")
0.90
>>> test_result("CC(C)(C)OC(=O)N1CCCC(c2ccc(-c3nc4cccc5c4n3CCNC5=O)cc2)C1 (stereo not drawn)")
1.34

Given N#CCc1ccc(-c2nc3cccc4c3n2CCNC4=O)cc1 , state its recorded log10 of Ki.
0.53

Try O=C1NCCn2c(-c3ccccn3)cc3cccc1c32 next.
1.83

Then O=C1N[C@@H](COCc2ccccc2)Cn2c(-c3ccc(CO)cc3)nc3cccc1c32 [Example 238a] ?
1.49

Now the compound CN(CCc1ccccc1)Cc1ccc(-c2nc3cccc4c3n2CCNC4=O)cc1
0.75

Check O=C1NCCn2c(-c3ccc(OCCN4CCCC4)cc3)nc3cccc1c32 too.
0.95

Now try N#CCCNCc1ccc(-c2nc3cccc4c3n2CCNC4=O)cc1 .
0.71

Moving on to O=C1NCCn2c(-c3cccs3)nc3cccc1c32
0.79

---

assay-metric: melting point

Which melting point is reported for this molecule? O=C1NCCn2c(-c3ccc(CN4CCSCC4)cc3)nc3cccc1c32
266 °C (dec.)

// query: O=C1NCCn2c(-c3cccc(CN4CCCC4)c3)cc3cccc1c32
158 to 160 °C

Check COC(OC)c1cccc(-c2nc3cccc4c3n2CCNC4=O)c1 [Example 31a] too.
182 to 185 °C

// query: CN1CCn2c(-c3cccc4ccccc34)nc3cccc(c32)C1=O
126 °C (dec.)

What do you get for CCOC(OCC)c1ccc(-c2nc3cc(F)cc4c3n2CCNC4=O)cc1 ?
219 to 221 °C

Try CC(=O)c1c(-c2ccc(F)cc2)n2c3c(cccc13)C(=O)NCC2 next.
275 to 276 °C

Thanks! And O=C1NCCn2c(-c3ccc(Sc4ccc(Cl)cc4)nc3)nc3cccc1c32 ?
280 to 284 °C (dec.)

Now the molecule O=C1NCCn2c(-c3ccc(F)c(F)c3)nc3cccc1c32
245 to 247 °C

Now consider O=C1NCCn2c(-c3ccccn3)cc3cccc1c32 and answer again.
173 to 175 °C

---

# target-of-assay: purified PARP protein (Homo sapiens, UniProt P09874)
# Sequence (P09874 whole entry): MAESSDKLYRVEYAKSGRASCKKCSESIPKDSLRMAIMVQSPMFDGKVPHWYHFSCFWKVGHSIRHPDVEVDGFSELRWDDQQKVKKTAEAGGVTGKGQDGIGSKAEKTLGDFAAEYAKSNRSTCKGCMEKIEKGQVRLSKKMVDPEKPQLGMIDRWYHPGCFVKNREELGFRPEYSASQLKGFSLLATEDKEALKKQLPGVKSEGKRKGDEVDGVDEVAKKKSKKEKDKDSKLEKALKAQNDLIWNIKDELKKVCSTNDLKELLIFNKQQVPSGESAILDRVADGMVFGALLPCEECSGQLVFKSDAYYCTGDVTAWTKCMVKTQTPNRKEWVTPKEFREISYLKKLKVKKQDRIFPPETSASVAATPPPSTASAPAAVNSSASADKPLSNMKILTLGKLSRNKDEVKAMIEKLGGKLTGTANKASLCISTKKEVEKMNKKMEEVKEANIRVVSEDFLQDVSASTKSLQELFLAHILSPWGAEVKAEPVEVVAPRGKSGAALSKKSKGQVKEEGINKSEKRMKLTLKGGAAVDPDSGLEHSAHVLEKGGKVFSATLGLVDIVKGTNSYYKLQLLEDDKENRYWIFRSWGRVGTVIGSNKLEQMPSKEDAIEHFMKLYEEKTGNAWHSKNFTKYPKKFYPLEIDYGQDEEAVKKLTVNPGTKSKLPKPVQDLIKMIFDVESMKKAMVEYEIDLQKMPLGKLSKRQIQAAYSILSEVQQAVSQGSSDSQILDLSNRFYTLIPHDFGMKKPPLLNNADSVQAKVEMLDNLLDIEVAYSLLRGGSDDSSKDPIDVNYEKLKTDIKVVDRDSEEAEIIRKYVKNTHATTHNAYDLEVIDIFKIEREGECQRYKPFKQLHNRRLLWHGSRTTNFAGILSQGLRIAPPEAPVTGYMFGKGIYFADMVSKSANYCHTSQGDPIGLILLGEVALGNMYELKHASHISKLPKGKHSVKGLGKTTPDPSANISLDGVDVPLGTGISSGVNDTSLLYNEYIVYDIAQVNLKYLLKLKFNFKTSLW
# assay-remarks: PARP enzyme inhibition assay
# Type: biochemical
# recorded-conditions: 20 nM purified PARP (5 nM for tight-binding inhibitors), 500 μM NAD+, 25° C.; several values in one cell = repeat determinations; read-out: Inhibition Constant Ki
Each entry below lists one item and its recorded Ki value.
// return numeric value only (unit: nM, not printed)

Consider the reported Ki for these molecules:
>>> test_result("O=C1NCCn2c(-c3ccc(CNC4CCc5ccccc54)cc3)nc3cccc1c32 (stereo not shown)")
4.5
>>> test_result("CC(c1ccc(-c2nc3cccc4c3n2CCNC4=O)cc1)N(C)C (stereo not shown)")
5.8
>>> test_result("CC(C)N1CCCCC1c1ccc(-c2nc3cccc4c3n2CCNC4=O)cc1 (stereo not shown)")
6.9
>>> test_result("C[N+](C)([O-])Cc1ccc(-c2nc3cccc4c3n2CCNC4=O)cc1")
22
>>> test_result("CN1CCCC1CCNCc1ccc(-c2nc3cccc4c3n2CCNC4=O)cc1 (stereo not shown)")
6.2
>>> test_result("CC(O)c1c(-c2ccc(F)cc2)n2c3c(cccc13)C(=O)NCC2 (stereo not shown)")
540

Dear colleague, I am looking for the recorded Ki of the following molecule: O=C1NCCn2c(-c3ccc(CN4CCC[C@@H]4CO)cc3)nc3cccc1c32
6.3

Another molecule: CN1CCCC(c2ccc(-c3nc4cccc5c4n3CCNC5=O)cc2)C1 (stereo not shown)
7.4

Another: C[C@H]1Cn2c(-c3ccc(CO)cc3)nc3cccc(c32)C(=O)N1 [Example 221a]
10

---

assay-metric: melting point

Solved cases (3 shown):
>>> test_result("O=C1NCCn2c(-c3ccc(-c4ncc[nH]4)cc3)nc3cccc1c32 [Example 152]")
"> 325 °C"
>>> test_result("O=C1NCCn2cc(C(O)c3ccccc3)c3cccc1c32 (centres unmarked) [Example 166]")
"178 to 180 °C"
>>> test_result("CN1CCCCC1c1ccc(-c2nc3cccc4c3n2CCNC4=O)cc1 (centres unmarked) [Example 132]")
"> 180 °C (dec.)"

Request the reported melting point associated with O=C1NCCn2c(-c3ccc(CCO)cc3)nc3cccc1c32 [Example 127]
263 to 265 °C

COc1ccc(Oc2cccc(-c3nc4cccc5c4n3CCNC5=O)c2)cc1 [Example 64] ?
196 to 198 °C

Next entry: CN1CCCC(c2ccc(-c3nc4cccc5c4n3CCNC5=O)cc2)C1 (centres unmarked) [Example 144]
240 to 242 °C

Do the same for O=C1NCCn2c(-c3cccc(Oc4ccc(Cl)c(Cl)c4)c3)nc3cccc1c32 [Example 63] please
252 to 254 °C (dec.)

Try CN(C)CCOc1ccc(-c2nc3cccc4c3n2CCNC4=O)cc1 [Example 124] next.
184 to 186 °C

Proceed to O=C1NCCn2c(-c3ccc(CN4CC[S+]([O-])CC4)cc3)nc3cccc1c32 [Example 122]
247 °C (dec.)

Field entry: CN(C)Cc1ccc(-c2nc3cc(F)cc4c3n2CCNC4=O)cc1 [Example 99]
240 °C (dec.)

Another molecule: O=C1NCCn2c(-c3ccc(Cl)cc3)cc3cccc1c32 [Example 34]
178 to 180 °C

Here is the next molecule: O=C1NCCn2c(-c3ccc(OCCO)cc3)nc3cccc1c32 [Example 120]
253 to 254 °C (dec.)

---

Ki reference
# target-of-assay: purified PARP protein (Homo sapiens, UniProt P09874)
# assay-remarks: PARP enzyme inhibition assay
# Format: biochemical
# recorded-conditions: 20 nM purified PARP (5 nM for tight-binding inhibitors), 500 μM NAD+, 25° C.; several values in one cell = repeat determinations; read-out: Inhibition Constant Ki
Value and unit, in that order.

The examples below pair each entry with its known result.
>>> test_result("O=C1NCCn2c(-c3cccc(CO)c3)nc3cccc1c32 [Example 32a]")
"8.8 nM"
>>> test_result("CN1CCCC1c1ccc(-c2nc3cccc4c3n2CCNC4=O)cc1 (centres unmarked)")
"4.2 nM"

purified PARP protein (Homo sapiens, UniProt P09874) / Ki / CNCc1cccc(-c2nc3cc(F)cc4c3n2CCNC4=O)c1 : value?
3.5 nM

Now the same for O=C(c1ccccc1)c1cccc(-c2nc3cccc4c3n2CCNC4=O)c1
8.9 nM

Entry to check: CC(O)c1cn2c3c(cccc13)C(=O)NCC2 (centres unmarked)
692 nM

How about this compound: Cc1ccc(C)n1Cc1ccc(-c2nc3cccc4c3n2CCNC4=O)cc1
14 nM

For O=C1NCCn2c(-c3ccc(CNCCc4ccncc4)cc3)nc3cccc1c32 then?
6.4 nM

---

# target-of-assay: purified PARP protein (Homo sapiens)
# assay-remarks: PARP enzyme inhibition assay
# Assay type: biochemical
# recorded-conditions: 20 nM purified PARP (5 nM for tight-binding inhibitors), 500 μM NAD+, 25° C.; several values in one cell = repeat determinations; read-out: Inhibition Constant Ki
assay-metric: pKi
Give only the number. pKi is defined as minus log10 of concentration in molar units.

>>> test_result("CN(C)Cc1ccc(-c2nc3cccc4c3n2C[C@H](CO)NC4=O)cc1 [Example 238]")
8.14
>>> test_result("CC1C=CC(C)N1Cc1ccc(-c2nc3cccc4c3n2CCNC4=O)cc1 (racemic) [Example 243]")
8.05

Tell me the measured pKi of O=C1NCCn2c(-c3ccc(CN4CCC(O)C4)cc3)nc3cc(F)cc1c32 (stereo not drawn) [Example 172] , please.
8.34

Again, but for COc1ccc(Oc2cccc(-c3nc4cccc5c4n3CCNC5=O)c2)cc1 [Example 64]
8.21

Proceed to COC(=O)c1cn2c3c(cccc13)C(=O)NCC2 [Example 44]
6.05

Ok, now COC(OC)c1cccc(-c2nc3cccc4c3n2CCNC4=O)c1 [Example 31a]
7.66

Repeat for the following molecule: N#CCNCc1ccc(-c2nc3cccc4c3n2CCNC4=O)cc1 [Example 102]
8.25

Entry to check: O=C1NCCn2c(-c3cccc(C4OCCO4)c3)nc3cc(F)cc1c32 [Example 68]
8.24

And for O=C1NCCn2c(-c3ccc(C4CCCCN4CC4CC4)cc3)nc3cccc1c32 (stereo not drawn) [Example 150] ?
8.30
